Target: Serine/threonine-protein kinase Sgk2 (Homo sapiens) (UniProt Q9HBY8)
Sequence (whole entry): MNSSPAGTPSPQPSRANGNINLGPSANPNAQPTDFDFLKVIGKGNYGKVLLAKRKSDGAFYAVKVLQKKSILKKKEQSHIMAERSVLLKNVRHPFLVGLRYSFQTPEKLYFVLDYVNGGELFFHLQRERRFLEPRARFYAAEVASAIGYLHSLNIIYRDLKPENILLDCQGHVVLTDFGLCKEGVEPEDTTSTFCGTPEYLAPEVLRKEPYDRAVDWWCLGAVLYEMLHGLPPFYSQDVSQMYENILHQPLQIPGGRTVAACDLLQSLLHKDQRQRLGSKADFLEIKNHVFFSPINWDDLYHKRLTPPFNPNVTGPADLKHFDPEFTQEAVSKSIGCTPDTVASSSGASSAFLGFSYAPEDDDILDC
Conditions: at 1 µM
reported metric: residual activity (%)

| smiles string | reported metric | numeric result |
| --- | --- | --- |
| O=c1cc(-c2cccc3c2Sc2ccccc2S3)oc(N2CCOCC2)c1 | residual activity | 91 |
| O=C(Nc1cccc(Nc2cc(Nc3cccc(C(F)(F)F)c3)ncn2)c1)C1CC1 | residual activity | 83 |
| O=C1NC(=O)/C(=C/c2ccc3c(c2)OC(F)(F)O3)S1 | residual activity | 102 |
| O=C1NC(=O)c2c1c1c3ccccc3[nH]c1c1[nH]c3cc(Br)ccc3c21 | residual activity | 64 |
| Cn1nc2c3c(cccc31)C(=O)c1ccccc1-2 | residual activity | 100 |
| CCC(=O)Nc1ccc2ncnc(Nc3cccc(Br)c3)c2c1 | residual activity | 105 |
| O=C(O)c1ccc2c3c1cccc3c(=O)n1c3ccccc3nc21 | residual activity | 116 |
| c1ccc(-c2n[nH]c3c2oc2ccccc23)cc1 | residual activity | 94 |
| Cc1cccc(-c2[nH]c(C(C)(C)C)nc2-c2ccc3c(c2)OCO3)n1 | residual activity | 89 |
| Cn1cc(/C=C2\C(=O)Nc3ccc(S(N)(=O)=O)cc32)c2ccccc21 | residual activity | 74 |
| Oc1c2ccccc2c2c3c(cccc13)N=N2 | residual activity | 71 |
| CCN(CC)CCCCN1c2ccccc2Oc2ccc(Cl)cc21 | residual activity | 104 |
| CN(C)CCCn1cc(C2=C(c3c[nH]c4ccccc34)C(=O)NC2=O)c2ccccc21 | residual activity | 41 |
| Cc1nc(-c2ccccc2)c(-c2ccncc2)o1 | residual activity | 126 |
| COc1ccc(CNc2nc(N(CCO)CCO)nc3c2ncn3C(C)C)cc1 | residual activity | 107 |
| COc1ccc(S(=O)(=O)N(CCO)c2ccccc2CN(C)C/C=C/c2ccc(Cl)cc2)cc1 | residual activity | 115 |
| O=[N+]([O-])c1ccc(-c2nc(-c3ccc(F)cc3)c(-c3ccncc3)[nH]2)cc1 | residual activity | 120 |
| Cn1cnc2cc3c(Nc4cccc(Br)c4)ncnc3cc21 | residual activity | 94 |
| CC(C)n1cnc2c(NCc3ccccc3)nc(NCCCO)nc21 | residual activity | 79 |
| COc1cc2ncnc(Nc3ccc(NC(=O)c4ccccc4)cc3)c2cc1OC | residual activity | 95 |
| CN(C)c1ccc(/C=C2\C(=O)Nc3ccccc32)cc1 | residual activity | 83 |
| CO[C@H]1C[C@@H]2CC[C@@H](C)[C@@](O)(O2)C(=O)C(=O)N2CCCC[C@H]2C(=O)O[C@H]([C@H](C)C[C@@H]2CC[C@@H](O)[C@H](OC)C2)CC(=O)[C@H](C)/C=C(\C)[C@@H](O)[C@@H](OC)C(=O)[C@H](C)C[C@H](C)/C=C/C=C/C=C/1C | residual activity | 124 |
